All figures here come from paper PMC9911399.

Listed here: items and their measured binding signal.
# systemName: T1, RBFOX1 RRM RbFoxmut (Fox-RRM*) (Homo sapiens, UniProt Q9NWB1 109-208, R118D;E147R;N151S;E152T)
# T1 sequence: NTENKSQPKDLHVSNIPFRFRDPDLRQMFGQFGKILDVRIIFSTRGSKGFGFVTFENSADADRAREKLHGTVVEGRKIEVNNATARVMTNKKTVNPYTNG
# methodSummary: EMSA; HiTS-Eq, 1 nM pool, 10 min; buffer printed only for the single-RNA assays: 10 mM Tris pH 7.5, 150 mM NaCl, 3.4 mM EDTA, 0.001% NP-40, 30 C
# experimentalContext: tags: His6 N-terminal (pET28a); label: 5' 32P
The full ranking holds about 16,000 sequences; the median of “ka relative to ugcaugu” is about 0.096, and the highest 2% start at about 0.35. This excerpt belongs to a sample that is enriched for the highest values.

Short answer for UGCAUCC (DNA:RNA) RNA: GGGAGACCGGAAUUCAGAUUGUCCUGCAUCCUUAAAUCCCGUCGUAGCCACCA DNA 1: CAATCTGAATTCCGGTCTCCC DNA 2: TGGTGGCTACGACGGGATT : binding signal was 0.421 KA relative to UGCAUGU

New cases:
Short answer for UGCAUGC (DNA:RNA) RNA: GGGAGACCGGAAUUCAGAUUGUCCUGCAUGCUUAAAUCCCGUCGUAGCCACCA DNA 1: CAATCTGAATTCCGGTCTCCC DNA 2: TGGTGGCTACGACGGGATT : binding signal was 1.29 KA relative to UGCAUGU
